- System: ZEAMX (Corn, Field)
- Assay Method Text: Postemergence herbicidal evaluation
- Assay type: in vivo, Zea mays
- Details: postemergence, rate 0.0630 kg/ha
Just a reminder that ties go to condition not met: only ZEAMX herbicidal rating strictly below 6 counts as condition met.

INSERT INTO results (compound, label_value) VALUES
  ('CCOC(=O)[C@H](C)N1C(=O)CSC1=Nc1cc(-n2c(=O)cc(C(F)(F)F)n(C)c2=O)c(F)cc1Cl', 'condition not met'),
  ('COC(=O)[C@H](Cc1ccc([N+](=O)[O-])cc1)N1C(=O)CSC1=Nc1cc(-n2c(=O)cc(C(F)(F)F)n(C)c2=O)c(F)cc1Cl', 'condition met'),
  ('CCOC(=O)CN1C(=O)C(=Cc2ccc(F)cc2)SC1=Nc1cc(-n2c(=O)cc(C(F)(F)F)n(C)c2=O)c(F)cc1Cl', 'condition met'),
  ('CCOC(=O)C(c1ccc(Cl)cc1)N1C(=O)CSC1=Nc1cc(-n2c(=O)cc(C(F)(F)F)n(C)c2=O)c(F)cc1Cl (racemic)', 'condition met'),
  ('C=CCN1C(=O)CSC1=Nc1cc(-n2c(=O)cc(C(F)(F)F)n(C)c2=O)c(F)cc1Cl', 'condition not met'),
  ('CCOC(=O)CN1C(=O)C(CC(=O)OCCF)SC1=Nc1cc(-n2c(=O)cc(C(F)(F)F)n(C)c2=O)c(F)cc1Cl (stereo not drawn)', 'condition not met'),
  ('CCOC(=O)CN1C(=O)C(=C(C)C)S/C1=N/c1cc(-n2c(=O)cc(C(F)(F)F)n(C)c2=O)c(F)cc1Cl', 'condition met'),
  ('COC(=O)[C@H](Cc1ccccc1)N1C(=O)CS/C1=N/c1cc(-n2c(=O)cc(C(F)(F)F)n(C)c2=O)c(F)cc1Cl', 'condition not met'),
  ('COC(=O)CC1SC(=Nc2cc(-n3c(=O)cc(C(F)(F)F)n(C)c3=O)c(F)cc2Cl)N(C)C1=O (stereo not drawn)', 'condition not met');

----------
Below, each entry is listed with its recorded TRZAWR rating.
- Test system: TRZAWR (Wheat, Winter, cv Riband)
- Assay Method Text: Preemergence herbicidal evaluation
- Type: in vivo, Triticum aestivum
- Details: preemergence, 0.1250 kg/ha, rated 4-5 weeks after treatment, 0-9 scale
- Excerpt: Results of herbicide evaluation are expressed on a rating scale (0-9). The scale is based upon a visual observation of plant stand, vigor, malformation, size, chlorosis and overall plant appearance as compared with a control. […] The compounds evaluated are reported by compound number given in Example 37.
Quantity Kind: TRZAWR rating

INSERT INTO measurements (compound, experimental_value) VALUES
  ('CCOC(=O)CN1C(=O)C(CC(=O)NS(=O)(=O)c2ccccc2)SC1=Nc1cc(-n2c(=O)cc(C(F)(F)F)n(C)c2=O)c(F)cc1Cl (centres unmarked) [Compound 100]', 1.0),
  ('CCOC(=O)CN1C(=O)C(CC(=O)OC(C)C(=O)OCC)S/C1=N/c1cc(-n2c(=O)cc(C(F)(F)F)n(C)c2=O)c(F)cc1Cl (centres unmarked) [Compound 87]', 0.0),
  ('COC(=O)CC1SC(=Nc2cc(-n3c(=O)cc(C(F)(F)F)n(C)c3=O)c(F)cc2Cl)N(C)C1=O (centres unmarked) [Compound 88]', 3.0),
  ('CN1C(=O)C(CC(=O)NS(C)(=O)=O)SC1=Nc1cc(-n2c(=O)cc(C(F)(F)F)n(C)c2=O)c(F)cc1Cl (centres unmarked) [Compound 97]', 0.0),
  ('CCOC(=O)CN1C(=O)C(CC(=O)NS(=O)(=O)CC)SC1=Nc1cc(-n2c(=O)cc(C(F)(F)F)n(C)c2=O)c(F)cc1Cl (centres unmarked) [Compound 103]', 0.0);

----------
- System: MOOVA (Monochoria)
- Assay Method Text: Preemergence weed control under flooded paddy conditions
- Format: in vivo, Monochoria vaginalis
- Details: 0.2500 kg/ha, rated 3-4 weeks after treatment
Quantity Kind: herbicidal effect rating, MOOVA

INSERT INTO measurements (molecule, experimental_value) VALUES
  ('COCCN1C(=O)CSC1=Nc1cc(-n2c(=O)cc(C(F)(F)F)n(C)c2=O)c(F)cc1Cl', 0.0),
  ('Cn1c(C(F)(F)F)cc(=O)n(-c2cc(N=C3SCC(=O)N3Cc3ccc(Cl)cc3)c(Cl)cc2F)c1=O', 9.0),
  ('C=CCN1C(=O)C(CC(=O)NO)SC1=Nc1cc(-n2c(=O)cc(C(F)(F)F)n(C)c2=O)c(F)cc1Cl (centres unmarked)', 9.0),
  ('Cn1c(C(F)(F)F)cc(=O)n(-c2cc(N=C3SCC(=O)N3Cc3ccco3)c(Cl)cc2F)c1=O', 9.0),
  ('C#CC(C)N1C(=O)CSC1=Nc1cc(-n2c(=O)cc(C(F)(F)F)n(C)c2=O)c(F)cc1Cl (centres unmarked)', 9.0),
  ('COc1cccc(CN2C(=O)CSC2=Nc2cc(-n3c(=O)cc(C(F)(F)F)n(C)c3=O)c(F)cc2Cl)c1', 8.0),
  ('CN1C(=O)C(CC(=O)NO)SC1=Nc1cc(-n2c(=O)cc(C(F)(F)F)n(C)c2=O)c(F)cc1Cl (centres unmarked)', 9.0),
  ('Cn1c(C(F)(F)F)cc(=O)n(-c2cc(N=C3SCC(=O)N3Cc3ccc(Br)cc3)c(Cl)cc2F)c1=O', 9.0);

----------
Reported Preemergence herbicidal rating GALAP values for a set of compounds
- Tested on: GALAP (Galium)
- Assay Method Text: Preemergence herbicidal evaluation
- Format: in vivo, Galium aparine
- Details: rate 0.2500 kg/ha; rated 4-5 weeks after treatment
Quantity Kind: Preemergence herbicidal rating GALAP

INSERT INTO results (compound, quantity_kind, experimental_value) VALUES
  ('Cn1c(C(F)(F)F)cc(=O)n(-c2cc(N=C3SCC(=O)N3CC(=O)OCC#N)c(Cl)cc2F)c1=O', 'Preemergence herbicidal rating GALAP', 4.0),
  ('C=CCN1C(=O)C(CC(=O)Nc2ccccc2)SC1=Nc1cc(-n2c(=O)cc(C(F)(F)F)n(C)c2=O)c(F)cc1Cl (stereo not shown)', 'Preemergence herbicidal rating GALAP', 9.0),
  ('CCOC(=O)CN1C(=O)C(Cl)SC1=Nc1cc(-n2c(=O)cc(C(F)(F)F)n(C)c2=O)c(F)cc1Cl (stereo not shown)', 'Preemergence herbicidal rating GALAP', 9.0),
  ('CCOC(=O)C(c1ccc(Cl)cc1)N1C(=O)CSC1=Nc1cc(-n2c(=O)cc(C(F)(F)F)n(C)c2=O)c(F)cc1Cl (racemic)', 'Preemergence herbicidal rating GALAP', 0.0),
  ('CCOC(=O)CCN1C(=O)CSC1=Nc1cc(-n2c(=O)cc(C(F)(F)F)n(C)c2=O)c(Cl)cc1Cl', 'Preemergence herbicidal rating GALAP', 3.5),
  ('CCOP(=O)(CN1C(=O)CSC1=Nc1cc(-n2c(=O)cc(C(F)(F)F)n(C)c2=O)c(F)cc1Cl)OCC', 'Preemergence herbicidal rating GALAP', 9.0),
  ('Cn1c(C(F)(F)F)cc(=O)n(-c2cc(N=C3SCC(=O)N3[C@@H](Cc3ccccc3)C(=O)O)c(Cl)cc2F)c1=O', 'Preemergence herbicidal rating GALAP', 7.0);

----------
Reported herbicidal rating CHEAL values follow for various compounds
- System: CHEAL (Lambsquarters, Common)
- Assay Method Text: Postemergence herbicidal evaluation
- Type: in vivo, Chenopodium album
- Details: postemergence, rate 0.0158 kg/ha
Quantity Kind: herbicidal rating CHEAL

INSERT INTO results (compound, quantity_kind, experimental_value) VALUES
  ('COCCOC(=O)CN1C(=O)CSC1=Nc1cc(-n2c(=O)cc(C(F)(F)F)n(C)c2=O)c(F)cc1Cl', 'herbicidal rating CHEAL', 2.0),
  ('C=CCN1C(=O)C(CC(=O)NS(=O)(=O)C(C)C)SC1=Nc1cc(-n2c(=O)cc(C(F)(F)F)n(C)c2=O)c(F)cc1Cl (centres unmarked)', 'herbicidal rating CHEAL', 0.0),
  ('CCOC(=O)CN1C(=O)C(CC(=O)NS(=O)(=O)C(C)C)SC1=Nc1cc(-n2c(=O)cc(C(F)(F)F)n(C)c2=O)c(F)cc1Cl (centres unmarked)', 'herbicidal rating CHEAL', 0.0),
  ('Cn1c(C(F)(F)F)cc(=O)n(-c2cc(N=C3SCC(=O)N3CC(=O)OCC#N)c(Cl)cc2F)c1=O', 'herbicidal rating CHEAL', 9.0),
  ('CCOC(=O)CN1C(=O)C(Cc2ccccc2OC(C)C(=O)O)S/C1=N/c1cc(-n2c(=O)cc(C(F)(F)F)n(C)c2=O)c(F)cc1Cl (centres unmarked)', 'herbicidal rating CHEAL', 7.0);

----------
- System: CHEAL (Lambsquarters, Common)
- Assay Method Text: Preemergence herbicidal evaluation
- Assay type: in vivo, Chenopodium album
- Details: rate 0.0156 kg/ha; rated 4-5 weeks after treatment
- Source text: Results of herbicide evaluation are expressed on a rating scale (0-9). The scale is based upon a visual observation of plant stand, vigor, malformation, size, chlorosis and overall plant appearance as compared with a control. […] The compounds evaluated are reported by compound number given in Example 37.
# Lookup of reported Preemergence herbicidal rating CHEAL keyed by entry
Quantity Kind: Preemergence herbicidal rating CHEAL

INSERT INTO results (compound, quantity_kind, experimental_value) VALUES
  ('C=CCN1C(=O)C(CC(=O)O)SC1=Nc1cc(-n2c(=O)cc(C(F)(F)F)n(C)c2=O)c(F)cc1Cl (stereo not shown) [Compound 62]', 'Preemergence herbicidal rating CHEAL', 7.0),
  ('CCOC(=O)CN1C(=O)CSC1=Nc1cc(N2C(=O)C3=C(CCCC3)C2=O)c(F)cc1Cl [Compound 47]', 'Preemergence herbicidal rating CHEAL', 9.0),
  ('Cn1c(C(F)(F)F)cc(=O)n(-c2cc(N=C3SCC(=O)N3CC(=O)OCC#N)c(Cl)cc2F)c1=O [Compound 109]', 'Preemergence herbicidal rating CHEAL', 9.0),
  ('C=CCOC(=O)CN1C(=O)CSC1=Nc1cc(-n2c(=O)cc(C(F)(F)F)n(C)c2=O)c(F)cc1Cl [Compound 106]', 'Preemergence herbicidal rating CHEAL', 8.0),
  ('COC(=O)[C@H](Cc1ccc([N+](=O)[O-])cc1)N1C(=O)CSC1=Nc1cc(-n2c(=O)cc(C(F)(F)F)n(C)c2=O)c(F)cc1Cl [Compound 78]', 'Preemergence herbicidal rating CHEAL', 9.0),
  ('CCOC(=O)CN1C(=O)C(CC(=O)OC(C)C)SC1=Nc1cc(-n2c(=O)cc(C(F)(F)F)n(C)c2=O)c(F)cc1Cl (stereo not shown) [Compound 60]', 'Preemergence herbicidal rating CHEAL', 9.0),
  ('Cn1c(C(F)(F)F)cc(=O)n(-c2cc(N=C3SCC(=O)N3C3CCOC3=O)c(Cl)cc2F)c1=O (stereo not shown) [Compound 73]', 'Preemergence herbicidal rating CHEAL', 9.0);

This collection of values is drawn from patent US20020137929A1.
